- Tested on: Swiss CD-1 female mice
- Assay Name: Nephrotoxicity study, histopathological scoring of kidney lesions
- Format: in vivo
- Parameters: key: mean of per-animal summed 0-4 lesion scores; higher = more nephrotoxic
- Applied Conditions: Table 6; mean of animal scores; 12 mg/Kg every 2 hours × 6, subcutaneous, total 72 mg/Kg
Numbered stars: 1 amine (or outer) side, 2 acyl side, 3 side chain; on linkers, the order of the positions; unused ones are H or OH. Bridge positions count the residues as written; N and C are the ends. Square brackets hold non-standard residues; d marks the D form. Peptide text beside a SMILES is read from it. * marks the point of attachment. X1 = C[C@@H](O)[C@@H](CS[*:1])N[*:2]; dGly(nOct) = CCCCCCCC[C@@H](N)C(=O)O; Hica(2S) = CC(C)C[C@H](O)C(=O)O; Octanoyl = CCCCCCCC(=O)*; Dab = NCC[C@H](N)C(=O)O
Items are presented alongside their recorded Group Score (GS).

# Molecule, Group Score (GS)
rows = [
    ("CCCCCCCC[C@@H](N)C(=O)N[C@H](C(=O)N[C@@H](CCN)C(=O)N[C@H]1CSSC[C@H]([C@@H](C)O)NC(=O)[C@H](CCN)NC(=O)[C@H](CCN)NC(=O)[C@H](CC(C)C)OC(=O)[C@@H](Cc2ccccc2)NC(=O)[C@H](CCN)NC1=O)[C@@H](C)O [Example 10] (H-[dGly(nOct)]T[Dab]C[Dab][dF][Hica(2S)][Dab][Dab]; linker 4-C via X1)", 0),
    ("CCCCCCCC[C@@H](N)C(=O)N[C@H](C(=O)N[C@@H](CCN)C(=O)N[C@H]1CSSC[C@H]([C@@H](C)O)NC(=O)[C@H](CCN)NC(=O)[C@H](CCN)NC(=O)[C@H](CC(C)C)OC(=O)[C@@H](CC(C)C)NC(=O)[C@H](CCN)NC1=O)[C@@H](C)O [Example 8] (H-[dGly(nOct)]T[Dab]C[Dab][dL][Hica(2S)][Dab][Dab]; linker 4-C via X1)", 0),
    ("CCCCCCCC(=O)N[C@@H](CCN)C(=O)N[C@H](C(=O)N[C@@H](CCN)C(=O)N[C@H]1CSSC[C@H]([C@@H](C)O)NC(=O)[C@H](CCN)NC(=O)[C@H](CCN)NC(=O)[C@H](CC(C)C)OC(=O)[C@@H](Cc2ccccc2)NC(=O)[C@H](CCN)NC1=O)[C@@H](C)O [Example 9] (Octanoyl-[Dab]T[Dab]C[Dab][dF][Hica(2S)][Dab][Dab]; linker 4-C via X1)", 0),
    ("CCCCCCCC[C@@H](N)C(=O)N[C@H](C(=O)N[C@@H](CCN)C(=O)N[C@H]1CSSC[C@H]([C@@H](C)O)NC(=O)[C@H](CCN)NC(=O)[C@H](CCN)NC(=O)[C@H](CC(C)C)NC(=O)[C@@H](CC(C)C)NC(=O)[C@H](CCN)NC1=O)[C@@H](C)O [Example 6] (H-[dGly(nOct)]T[Dab]C[Dab][dL]L[Dab][Dab]; linker 4-C via X1; N-terminus assumed)", 1),
]

---

Listed here: items and their measured Cell vacuolization, Partial AS.
- System: Swiss CD-1 female mice
- Assay Name: Nephrotoxicity study, histopathological scoring of kidney lesions
- Format: in vivo
- Applied Conditions: Table 8; 12 mg/Kg every 2 hours × 6 sc, total 72 mg/Kg; 3 mice
Quantity Measured: Cell vacuolization, Partial AS

# Substance, Experimental Result
records = [
    ("Decanoyl-Dab-Thr-Dab-cyclo(S-S)[Cys-Dab-DPhe-Nle-Dab-Dab-DCys] [compound 2]", 0),
    ("DAoc-Thr-Dab-cyclo(S-S)[Cys-Dab-DNIe-Leu-Dab-Dab-DCys] [compound 5]", 0),
    ("Nonanoyl-Dab-Thr-Dab-cyclo(S-S)[Cys-Dab-DPhe-Leu-Dab-Dab-Cys] [compound 1]", 0),
    ("Heptanoyl-Dab-Thr-Dab-cyclo(S-S)[Cys-Dab-DAoc-Nle-Dab-Dab-DCys] [compound 3]", 3),
]

---

- Test system: Swiss CD-1 female mice
- Assay Name: Nephrotoxicity study, histopathological scoring of kidney lesions
- Assay type: in vivo
- Applied Conditions: Table 6; sum of mouse scores; 12 mg/Kg every 2 hours × 6, subcutaneous, total 72 mg/Kg
Numbered stars: 1 amine (or outer) side, 2 acyl side, 3 side chain; on linkers, the order of the positions; unused ones are H or OH. Bridge positions count the residues as written; N and C are the ends. Square brackets hold non-standard residues; d marks the D form. Peptide text beside a SMILES is read from it. * marks the point of attachment. X1 = C[C@@H](O)[C@@H](CS[*:1])N[*:2]; dGly(nOct) = CCCCCCCC[C@@H](N)C(=O)O; Hica(2S) = CC(C)C[C@H](O)C(=O)O; Octanoyl = CCCCCCCC(=O)*; Dab = NCC[C@H](N)C(=O)O
Quantity Measured: Tubular dilation, Partial AS

# Molecule, Quantity Measured, Experimental Result
rows = [
    ("CCCCCCCC(=O)N[C@@H](CCN)C(=O)N[C@H](C(=O)N[C@@H](CCN)C(=O)N[C@H]1CSSC[C@H]([C@@H](C)O)NC(=O)[C@H](CCN)NC(=O)[C@H](CCN)NC(=O)[C@H](CC(C)C)OC(=O)[C@@H](Cc2ccccc2)NC(=O)[C@H](CCN)NC1=O)[C@@H](C)O [Example 9] (Octanoyl-[Dab]T[Dab]C[Dab][dF][Hica(2S)][Dab][Dab]; linker 4-C via X1)", "Tubular dilation, Partial AS", 0),
    ("CCCCCCCC[C@@H](N)C(=O)N[C@H](C(=O)N[C@@H](CCN)C(=O)N[C@H]1CSSC[C@H]([C@@H](C)O)NC(=O)[C@H](CCN)NC(=O)[C@H](CCN)NC(=O)[C@H](CC(C)C)OC(=O)[C@@H](CC(C)C)NC(=O)[C@H](CCN)NC1=O)[C@@H](C)O [Example 8] (H-[dGly(nOct)]T[Dab]C[Dab][dL][Hica(2S)][Dab][Dab]; linker 4-C via X1)", "Tubular dilation, Partial AS", 0),
    ("CCCCCCCC[C@@H](N)C(=O)N[C@H](C(=O)N[C@@H](CCN)C(=O)N[C@H]1CSSC[C@H]([C@@H](C)O)NC(=O)[C@H](CCN)NC(=O)[C@H](CCN)NC(=O)[C@H](CC(C)C)NC(=O)[C@@H](CC(C)C)NC(=O)[C@H](CCN)NC1=O)[C@@H](C)O [Example 6] (H-[dGly(nOct)]T[Dab]C[Dab][dL]L[Dab][Dab]; linker 4-C via X1; N-terminus assumed)", "Tubular dilation, Partial AS", 0),
]

---

- Test system: Swiss CD-1 female mice
- Assay Name: Nephrotoxicity study, histopathological scoring of kidney lesions
- Assay type: in vivo
- Applied Conditions: Table 6; sum of mouse scores; 12 mg/Kg every 2 hours × 6, subcutaneous, total 72 mg/Kg
Numbered stars: 1 amine (or outer) side, 2 acyl side, 3 side chain; on linkers, the order of the positions; unused ones are H or OH. Bridge positions count the residues as written; N and C are the ends. Square brackets hold non-standard residues; d marks the D form. Peptide text beside a SMILES is read from it. * marks the point of attachment. X1 = C[C@@H](O)[C@@H](CS[*:1])N[*:2]; dGly(nOct) = CCCCCCCC[C@@H](N)C(=O)O; Hica(2S) = CC(C)C[C@H](O)C(=O)O; Octanoyl = CCCCCCCC(=O)*; Dab = NCC[C@H](N)C(=O)O
The entries below are paired with their reported Cloudy swelling, Partial AS.

# Compound, Cloudy swelling, Partial AS
records = [
    ("CCCCCCCC[C@@H](N)C(=O)N[C@H](C(=O)N[C@@H](CCN)C(=O)N[C@H]1CSSC[C@H]([C@@H](C)O)NC(=O)[C@H](CCN)NC(=O)[C@H](CCN)NC(=O)[C@H](CC(C)C)OC(=O)[C@@H](Cc2ccccc2)NC(=O)[C@H](CCN)NC1=O)[C@@H](C)O [Example 10] (H-[dGly(nOct)]T[Dab]C[Dab][dF][Hica(2S)][Dab][Dab]; linker 4-C via X1)", 0),
    ("CCCCCCCC[C@@H](N)C(=O)N[C@H](C(=O)N[C@@H](CCN)C(=O)N[C@H]1CSSC[C@H]([C@@H](C)O)NC(=O)[C@H](CCN)NC(=O)[C@H](CCN)NC(=O)[C@H](CC(C)C)NC(=O)[C@@H](CC(C)C)NC(=O)[C@H](CCN)NC1=O)[C@@H](C)O [Example 6] (H-[dGly(nOct)]T[Dab]C[Dab][dL]L[Dab][Dab]; linker 4-C via X1; N-terminus assumed)", 5),
    ("CCCCCCCC(=O)N[C@@H](CCN)C(=O)N[C@H](C(=O)N[C@@H](CCN)C(=O)N[C@H]1CSSC[C@H]([C@@H](C)O)NC(=O)[C@H](CCN)NC(=O)[C@H](CCN)NC(=O)[C@H](CC(C)C)OC(=O)[C@@H](Cc2ccccc2)NC(=O)[C@H](CCN)NC1=O)[C@@H](C)O [Example 9] (Octanoyl-[Dab]T[Dab]C[Dab][dF][Hica(2S)][Dab][Dab]; linker 4-C via X1)", 0),
    ("CCCCCCCC[C@@H](N)C(=O)N[C@H](C(=O)N[C@@H](CCN)C(=O)N[C@H]1CSSC[C@H]([C@@H](C)O)NC(=O)[C@H](CCN)NC(=O)[C@H](CCN)NC(=O)[C@H](CC(C)C)OC(=O)[C@@H](CC(C)C)NC(=O)[C@H](CCN)NC1=O)[C@@H](C)O [Example 8] (H-[dGly(nOct)]T[Dab]C[Dab][dL][Hica(2S)][Dab][Dab]; linker 4-C via X1)", 0),
    ("CCCCCCCC[C@@H](N)C(=O)N[C@H](C(=O)N[C@@H](CCN)C(=O)N[C@H]1CSSC[C@H]([C@@H](C)O)NC(=O)[C@H](CCN)NC(=O)[C@H](CCN)NC(=O)[C@H](CC(C)C)NC(=O)[C@@H](Cc2ccccc2)NC(=O)[C@H](CCN)NC1=O)[C@@H](C)O [Example 5] (H-[dGly(nOct)]T[Dab]C[Dab][dF]L[Dab][Dab]; linker 4-C via X1; N-terminus assumed)", 3),
]

The measurements presented in this section are drawn from patent US20210253520A1.
